Where do the numbers come from? From paper PMC13541613.

target: ZNF721 DBD1 (Homo sapiens, UniProt Q8TF20-2 29-461); assay: HT-SELEX; 20 mM HEPES pH 7, 140 mM KCl, 5 mM NaCl, 1 mM K2HPO4, 2 mM MgSO4, 100 uM EGTA, ZnSO4, 0.1% Tween20; room temperature, 1 h; high values mean tight binding; conditions: protein: ivt; tags: eGFP (N-terminal); dsDNA, one strand shown
Sequence (Q8TF20 17-449): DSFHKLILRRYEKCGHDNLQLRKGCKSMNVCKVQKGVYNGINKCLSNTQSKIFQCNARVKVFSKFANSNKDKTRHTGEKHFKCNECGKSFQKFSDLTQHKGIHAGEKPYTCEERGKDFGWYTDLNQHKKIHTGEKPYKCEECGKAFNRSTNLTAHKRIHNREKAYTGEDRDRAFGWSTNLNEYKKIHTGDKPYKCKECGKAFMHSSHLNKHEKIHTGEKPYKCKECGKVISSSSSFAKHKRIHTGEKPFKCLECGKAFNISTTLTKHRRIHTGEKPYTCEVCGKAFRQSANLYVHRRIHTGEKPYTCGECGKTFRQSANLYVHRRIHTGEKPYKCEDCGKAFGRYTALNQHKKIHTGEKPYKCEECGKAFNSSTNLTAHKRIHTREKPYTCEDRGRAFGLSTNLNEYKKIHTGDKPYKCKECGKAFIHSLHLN
parameter.measured: log10(binding signal) (log10 of the value in relative 10-mer count)
Log10 applied to binding signal; unit prior to transform: relative 10-mer count.

Previously resolved entries follow.
Challenge: Sample ACCCCACCAC — what was its log10(binding signal)?
Response given: -2.13

Challenge: Another sequence to check: CCTCCACCCC
Response given: -1.93

Challenge: Another sequence to check: CGCCACCCAC
Response given: -2.25

Challenge: Another sequence to check: AAAAAGCAGA
Response given: -2.74

For every listed record, write down its log10(binding signal).
1. ACGAAAAAAG
2. CCCCCGTCCC
3. CCCCTTCCCC
4. AGGGGGGTGG
5. CCAAAAAAAC

Response given:
[-1.60, -2.19, -2.15, -2.08, -2.77]
